Biological target: Rat liver VDAC (Rattus norvegicus, UniProt Q9Z2L0)
Construct: Rat liver VDAC was purified in accordance with a report made by Shimizu et al; from tissue; host or cells: rat liver (mitochondria)
Sequence (Q9Z2L0 whole entry): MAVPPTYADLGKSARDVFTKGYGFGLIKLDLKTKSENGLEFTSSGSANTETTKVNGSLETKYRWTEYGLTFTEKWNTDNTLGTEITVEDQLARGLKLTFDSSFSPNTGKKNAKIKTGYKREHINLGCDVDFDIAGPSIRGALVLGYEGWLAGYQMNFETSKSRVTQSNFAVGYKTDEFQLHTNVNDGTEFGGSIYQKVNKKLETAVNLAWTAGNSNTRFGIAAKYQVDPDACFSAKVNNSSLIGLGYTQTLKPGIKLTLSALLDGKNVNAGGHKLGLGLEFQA
Test: VDAC activity: sucrose uptake into VDAC liposomes (liposomal swelling, light scatter at 520 nm)
Type: biochemical
Conditions: VDAC liposomes, 50 mM sucrose, 20 μg/ml protein or polypeptide
Experimental: Purified VDAC was reconstituted in small unilamellar vesicles by the ultrasonic freeze-thaw procedure described in a report made by Shimizu et al. [Nature, 399, 483-487 (1999)]. Sucrose uptake experiment was performed by assessing liposomal swelling. Liposomes produced at pH 5.2 were incubated at 25° C. in 1 ml of liposome buffer together with rBcl-xL, rΔ21, rBax or a polypeptide for 3 minutes. Here, acidic pH was a required condition for efficient uptake of rBcl-xL and rBax into the liposomes. […]
endpoint: Inhibition of VDAC activity (VDAC-mediated sucrose uptake)

LV89VF: L8V9 mutant of human Bcl-xL BH4 polypeptide (FIG. 13) (SNREVFVDFLSYKLSQKGYS) [reference compound]	did not inhibit
ΔLV: L8V9 mutant of human Bcl-xL BH4 polypeptide (FIG. 13) (SNREVDFLSYKLSQKGYS) [reference compound]	did not inhibit
ΔFL: F12L13 mutant of human Bcl-xL BH4 polypeptide (FIG. 13) (SNRELVVDSYKLSQKGYS) [reference compound]	did not inhibit
